- Tested on: HCT116;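 further: Luminescence-based viability readout, five doses per compound, normalized against on-plate DMSO and empty-well controls, followed by dose-response curve fitting for every drug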
- Assay Overview: efficacy (fitted maximal change in viability relative to DMSO control); higher = less cytotoxic (negative = loss of viability)
- Recorded Conditions: 48 h
Structures can show the parent of a compound that is named as a salt.
Observable: efficacy
Remember to put the unit after the number in your answer.

Illustrative cases are given below, each with its answer.
Compound: Cc1cc(C)c(/C=C2\C(=O)Nc3ccccc32)[nH]1 [Semaxanib]
efficacy: -29.1%
//
Compound: Oc1ccc(-c2nc(-c3ccncc3)c(-c3ccc(F)cc3)[nH]2)cc1
efficacy: -80%

Turning now to a further record.
The compound CN1CCC(CC1)=C2C3=C(C=CC=C3)\C=C/C4=C2C=CC=C4 [Cyproheptadine hydrochloride] showed efficacy equal to -81.9%
